test system: Wolbachia pipientis; assay: Anti-Wolbachia Cell-Based Screen; format: functional; design: scale not given: in the data most compounds retested in dose-response had high values; conditions: 5 µM
In all, about 48,000 compounds went through this assay and about 13,000 (27%) showed an effect of 50% or more. The list shows a part of the results.
I'd appreciate it if you could supply Percent Effect values for the items below.
API: value field is a number in %; no unit string.

Give Percent Effect only, for O=C(O)C(F)(F)F.O=C(O)C(F)(F)F.O=C(O)C(F)(F)F.c1cc(CN2CCOCC3(C2)CN(Cc2nccs2)CCO3)ccn1 (centres undefined) , using Wolbachia pipientis data.
-17.66

Quote Percent Effect with test system Wolbachia pipientis for Cn1ccc(C(=O)N2CCOC3(COCCN(CC4CC4)C3)C2)n1.O=C(O)C(F)(F)F (centres undefined)
108.5

Supply Percent Effect measured with Wolbachia pipientis for CCC(O)CN1CCN(C(=O)C2(c3ccc(C)c(OC)c3)CC2)CC1 (centres undefined) .
-7.505

Give reported Percent Effect for Fc1cccc(CN2CCOC3(COCCN(CC4CC4)C3)C2)c1.O=C(O)C(F)(F)F.O=C(O)C(F)(F)F (centres undefined) (Wolbachia pipientis)
100.6

State the measured Percent Effect (Wolbachia pipientis) of CCC(=O)N1CCC2(CCN(Cc3cccc(F)c3)CC2)CC1.O=C(O)C(F)(F)F
-2.197

Give Wolbachia pipientis Percent Effect for the following molecule: O=C(O)C(F)(F)F.O=C(O)C(F)(F)F.O=C(O)C(F)(F)F.c1coc(CN2CCOC3(COCCN(Cc4ccncc4)C3)C2)c1 (centres undefined)
-11.91

Find the measured Percent Effect of O=S(=O)(NCC(O)c1ccc(C(F)(F)F)cc1)C1CC1 (centres undefined) with Wolbachia pipientis as test system.
-5.07

Tell me its Percent Effect on Wolbachia pipientis: O=C(O)C(F)(F)F.O=C(c1ccoc1)N1CCOC2(COCCN(CC3CC3)C2)C1 (centres undefined)
89.02

Recall the reported Percent Effect of O=C(O)C(F)(F)F.O=C(c1ccccn1)N1CCOC2(COCCN(Cc3cc[nH]n3)C2)C1 (centres undefined) on Wolbachia pipientis and write it down.
-2.383

====

I'd be grateful if you could share measured Percent Effect for these entries.
system: Wolbachia pipientis; experiment: Anti-Wolbachia Cell-Based Screen; type: functional; set-up: scale not given: in the data most compounds retested in dose-response had high values; details: 5 µM
Among all 48,000 compounds or so, about 13,000 (27%) showed an effect of 50% or more. The list shows a part of the results.
Give just the numeric value; % need not be written.

Give the observed Percent Effect of c1nc(N2CCc3[nH]cnc3C2)c2cc[nH]c2n1 for Wolbachia pipientis.
98.13

Report measured Percent Effect on Wolbachia pipientis; entry: CC(C)c1ncc2c(n1)CN(c1ncnc3[nH]ccc13)CC2
96.63

// fetch Percent Effect; item: COCCCN1CC2(CCCN(c3ncnc4[nH]ccc34)C2)CCC1=O (configuration not stated) ; system: Wolbachia pipientis
0.6665

Provide Percent Effect, system Wolbachia pipientis, entry Cc1nc(C)n(CC2CCCN(c3ncnc4[nH]ccc34)C2)n1 (configuration not stated)
6.618

Provide Percent Effect, tested on Wolbachia pipientis, for CNc1nc(C2CCCN2C(C)=O)nc2c1CN(CCO)CC2.O=CO (configuration not stated) .
123.3

Param request: Percent Effect | system Wolbachia pipientis | item CNc1nc(N2CCN(C3CCCCC3)C(CCO)C2)nc2c1CCC2 (configuration not stated)
13.4

// output Percent Effect; input O=C(CCNC1(c2nccs2)CCCC1)N1CCOCC1 ; system Wolbachia pipientis
-14.98

Fill in Percent Effect for Cn1cc(C2CCCN2c2ncnc3[nH]ccc23)cn1 (configuration not stated) tested with Wolbachia pipientis.
-13.62

Under Wolbachia pipientis: report Percent Effect of CC1(c2nccs2)CCN(C(=O)CC2CCOCC2)CC1 .
133.3

For Wolbachia pipientis, give the measured Percent Effect of the entry COc1cccc(CN2CCN(c3cccc(C(C)C)n3)CC2)c1F
77.06

Specify Percent Effect for Cc1ncc2c(n1)CN(c1ncnc3[nH]ccc13)CC2 , system Wolbachia pipientis.
103

Look up and report measured Percent Effect (Wolbachia pipientis) for the following compound: CNc1nc(C2CCCN2C(C)=O)nc2c1CCN(CC1CC1)C2 (configuration not stated)
-2.53
